Property: kinase still bound, per cent of control; scope: individual molecules
Study System: RPS6KA5 KD2 (human) (UniProt O75582)
Sequence (O75582 whole entry, looked up): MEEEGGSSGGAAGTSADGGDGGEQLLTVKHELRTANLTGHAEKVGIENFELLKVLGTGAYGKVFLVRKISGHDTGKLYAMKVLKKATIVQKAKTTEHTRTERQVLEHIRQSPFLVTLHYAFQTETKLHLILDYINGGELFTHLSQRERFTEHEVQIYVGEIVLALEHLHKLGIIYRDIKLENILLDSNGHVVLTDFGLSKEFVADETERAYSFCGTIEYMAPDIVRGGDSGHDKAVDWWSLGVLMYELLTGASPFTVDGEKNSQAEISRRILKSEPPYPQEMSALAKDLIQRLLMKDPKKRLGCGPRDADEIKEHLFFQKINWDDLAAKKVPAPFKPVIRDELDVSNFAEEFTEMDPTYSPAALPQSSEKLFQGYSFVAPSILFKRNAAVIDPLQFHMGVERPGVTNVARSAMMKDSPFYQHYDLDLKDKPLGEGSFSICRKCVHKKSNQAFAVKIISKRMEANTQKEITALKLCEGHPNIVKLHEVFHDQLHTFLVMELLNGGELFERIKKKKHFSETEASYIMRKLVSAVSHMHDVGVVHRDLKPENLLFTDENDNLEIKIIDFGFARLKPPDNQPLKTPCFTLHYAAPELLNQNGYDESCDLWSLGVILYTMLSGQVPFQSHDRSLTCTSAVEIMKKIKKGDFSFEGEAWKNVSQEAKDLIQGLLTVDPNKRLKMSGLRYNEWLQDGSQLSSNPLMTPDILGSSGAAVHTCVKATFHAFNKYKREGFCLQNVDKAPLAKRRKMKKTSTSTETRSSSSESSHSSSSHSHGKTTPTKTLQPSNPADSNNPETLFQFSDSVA
Procedure Summary: KINOMEscan competition binding
Measurement Parameters: compound 10.0 µM
Give just the numeric value; % need not be written.

Recorded results for 3 molecules are shown here.
Smiles Notation: CC(C)n1nc(-c2cc3cc(O)ccc3[nH]2)c2c(N)ncnc21
kinase still bound, per cent of control / %: 22

Smiles Notation: COC(=O)Nc1ccc(-c2nc(N3CCOCC3)c3cnn(C4CCN(C(=O)OC)CC4)c3n2)cc1
kinase still bound, per cent of control / %: 88

Smiles Notation: CCC(=O)N1CCN(c2ccc(-n3c(=O)ccc4cnc5ccc(-c6cnc7ccccc7c6)cc5c43)cc2C(F)(F)F)CC1
kinase still bound, per cent of control / %: 100

We now examine a further molecule.
Please fill in: kinase still bound, per cent of control reported for COc1ccc(-c2ccc3c(N4CCOCC4)nc(N4C[C@@H](C)O[C@@H](C)C4)nc3n2)cc1CO = 100

----------
Study System: PRKCA (human) (UniProt P17252)
Measurement Parameters: compound 10.0 µM
Measured Parameter: per cent of control

Below: 3 molecules and their reported per cent of control.
Smiles Notation: CCC(=O)N1CCN(c2ccc(-n3c(=O)ccc4cnc5ccc(-c6cnc7ccccc7c6)cc5c43)cc2C(F)(F)F)CC1
Study System: PRKCA (human) (UniProt P17252)
per cent of control: 68%

Smiles Notation: CC(C)n1nc(-c2cc3cc(O)ccc3[nH]2)c2c(N)ncnc21
Study System: PRKCA (human) (UniProt P17252)
per cent of control: 9%

Smiles Notation: COC(=O)Nc1ccc(-c2nc(N3CCOCC3)c3cnn(C4CCN(C(=O)OC)CC4)c3n2)cc1
Study System: PRKCA (human) (UniProt P17252)
per cent of control: 75%

Sample COc1ccc(-c2ccc3c(N4CCOCC4)nc(N4C[C@@H](C)O[C@@H](C)C4)nc3n2)cc1CO ; per cent of control observed: 86%

----------
Study System: ICK (human)
Procedure Summary: KINOMEscan competition binding
Measurement Parameters: compound 10.0 µM
Some molecules, each annotated with its measured kinase still bound, per cent of control.
Write the value in % as a bare number.

Smiles Notation: CCC(=O)N1CCN(c2ccc(-n3c(=O)ccc4cnc5ccc(-c6cnc7ccccc7c6)cc5c43)cc2C(F)(F)F)CC1
Reading Unit: %
Observed Value: 100

What the record says about CC(C)n1nc(-c2cc3cc(O)ccc3[nH]2)c2c(N)ncnc21 : kinase still bound, per cent of control is 58

Entry COc1ccc(-c2ccc3c(N4CCOCC4)nc(N4C[C@@H](C)O[C@@H](C)C4)nc3n2)cc1CO — recorded kinase still bound, per cent of control = 100

Documented kinase still bound, per cent of control of COC(=O)Nc1ccc(-c2nc(N3CCOCC3)c3cnn(C4CCN(C(=O)OC)CC4)c3n2)cc1 : 85

----------
Study System: ACVR2B (human) (UniProt Q13705)
Sequence (Q13705 whole entry, looked up): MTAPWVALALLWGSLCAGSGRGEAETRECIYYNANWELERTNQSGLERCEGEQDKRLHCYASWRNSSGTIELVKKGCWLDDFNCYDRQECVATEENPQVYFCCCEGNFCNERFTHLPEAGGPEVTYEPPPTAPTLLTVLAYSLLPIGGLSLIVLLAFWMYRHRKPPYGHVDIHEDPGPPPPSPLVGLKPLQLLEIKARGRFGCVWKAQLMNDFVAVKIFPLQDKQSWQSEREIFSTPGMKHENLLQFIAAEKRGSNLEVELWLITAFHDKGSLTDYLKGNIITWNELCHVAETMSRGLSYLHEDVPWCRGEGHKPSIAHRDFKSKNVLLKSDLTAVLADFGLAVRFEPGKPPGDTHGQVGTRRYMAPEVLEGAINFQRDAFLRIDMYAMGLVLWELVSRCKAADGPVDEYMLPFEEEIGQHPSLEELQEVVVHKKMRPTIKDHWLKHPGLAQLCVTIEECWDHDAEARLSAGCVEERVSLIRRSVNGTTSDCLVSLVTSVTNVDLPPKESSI
Procedure Summary: KINOMEscan competition binding
Measurement Parameters: compound 10.0 µM
Below: a set of entries, each annotated with reported kinase still bound, per cent of control.
Write the numeric value and append its unit.

Smiles Notation: CC(C)n1nc(-c2cc3cc(O)ccc3[nH]2)c2c(N)ncnc21
kinase still bound, per cent of control: 2%

Query COC(=O)Nc1ccc(-c2nc(N3CCOCC3)c3cnn(C4CCN(C(=O)OC)CC4)c3n2)cc1 yields kinase still bound, per cent of control of 100%

Entry COc1ccc(-c2ccc3c(N4CCOCC4)nc(N4C[C@@H](C)O[C@@H](C)C4)nc3n2)cc1CO ; kinase still bound, per cent of control = 100%

kinase still bound, per cent of control measured on CCC(=O)N1CCN(c2ccc(-n3c(=O)ccc4cnc5ccc(-c6cnc7ccccc7c6)cc5c43)cc2C(F)(F)F)CC1 = 42%
